Reference source: patent US20240246977A1

target_or_system: BTK (Homo sapiens, UniProt Q06187)
Sequence (Q06187 whole entry): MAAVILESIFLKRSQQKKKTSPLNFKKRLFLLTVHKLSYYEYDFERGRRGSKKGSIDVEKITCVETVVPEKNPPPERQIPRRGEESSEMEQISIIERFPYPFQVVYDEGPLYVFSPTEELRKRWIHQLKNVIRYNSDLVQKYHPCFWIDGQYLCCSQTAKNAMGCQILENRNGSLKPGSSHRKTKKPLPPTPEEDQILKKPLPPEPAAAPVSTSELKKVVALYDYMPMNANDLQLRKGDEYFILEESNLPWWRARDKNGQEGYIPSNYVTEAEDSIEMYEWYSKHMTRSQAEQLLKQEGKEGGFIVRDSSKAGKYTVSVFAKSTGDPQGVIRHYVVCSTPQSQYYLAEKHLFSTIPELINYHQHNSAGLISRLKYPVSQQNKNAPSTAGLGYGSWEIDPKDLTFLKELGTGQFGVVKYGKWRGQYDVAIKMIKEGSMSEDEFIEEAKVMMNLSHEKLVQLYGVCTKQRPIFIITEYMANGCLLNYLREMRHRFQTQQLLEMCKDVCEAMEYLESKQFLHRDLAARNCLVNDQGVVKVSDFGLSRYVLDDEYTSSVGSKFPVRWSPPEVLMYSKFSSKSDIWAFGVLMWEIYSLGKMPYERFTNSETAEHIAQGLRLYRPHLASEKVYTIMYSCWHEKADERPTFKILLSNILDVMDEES
method_summary: BTK cell degradation in TMD-8 cells, HTRF assay
Type: cell-based
Design: endogenous in cells; host or cells: TMD-8 cells
applied_conditions: 6 h treatment, IC50 (DC50) of BTK degradation
Item-by-item account of log10(DC50)
observable: log10(DC50) (log10 of the value in nM)

[
  {
    "compound": "Cc1c(C(=O)Nc2cscn2)ccc(-c2nn3c(c2C(N)=O)Nc2ccc(N4CCN(CCc5cccc6c5oc(=O)n6C5CCC(=O)NC5=O)CC4)cc2CC3)c1F (centres unmarked)",
    "log10(DC50)": -0.23
  },
  {
    "compound": "NC(=O)c1c(-c2ccc(Oc3ccccc3)cc2)nn2c1Nc1ccc(C(=O)N3CCN(CC4CCN(c5ccc6c(c5)C(=O)N(C5CCC(=O)NC5=O)C6=O)CC4)CC3)cc1CC2 (centres unmarked)",
    "log10(DC50)": 0.45
  },
  {
    "compound": "CC(C)(C)c1noc(C(=O)NCc2ccc(-c3nn4c(c3C(N)=O)Nc3ccc(N5CCN(CC6CCN(c7ccc(N8CCC(=O)NC8=O)cc7)CC6)CC5)cc3CC4)cc2)n1",
    "log10(DC50)": 0.26
  },
  {
    "compound": "Cc1cc(-c2nn3c(c2C(N)=O)Nc2ccc(N4CCN(CC5CCN(c6ccc(N7CCC(=O)NC7=O)cc6)CC5)CC4)cc2CC3)ccc1CNC(=O)c1noc(C(C)(C)C)n1",
    "log10(DC50)": 1.36
  },
  {
    "compound": "NC(=O)c1c(-c2ccc(Oc3ccccc3)cc2)nn2c1Nc1ccc(CCC3CCN(c4ccc(NC5CCC(=O)NC5=O)cc4)CC3)cc1CC2 (centres unmarked)",
    "log10(DC50)": 1.20
  },
  {
    "compound": "NC(=O)c1c(-c2ccc(Oc3ccccc3)cc2)nn2c1Nc1ccc(NC(=O)C3CCN(CC4CCN(c5ccc6c(c5)C(=O)N(C5CCC(=O)NC5=O)C6=O)CC4)CC3)cc1CC2 (centres unmarked)",
    "log10(DC50)": 0.10
  },
  {
    "compound": "CCOc1ccnc(NC(=O)c2ccc(-c3nn4c(c3C(N)=O)Nc3ccc(N5CCN(CC6CCN(c7ccc(N8CCC(=O)NC8=O)cc7)CC6)CC5)cc3CC4)c(F)c2C)c1",
    "log10(DC50)": 0.87
  },
  {
    "compound": "Cc1cccc(NC(=O)c2ccc(-c3nn4c(c3C(N)=O)Nc3ccc(N5CCN(CCc6cc(F)c(C7CCC(=O)NC7=O)c(F)c6)CC5)cc3CC4)nc2C)n1 (centres unmarked)",
    "log10(DC50)": 0.75
  },
  {
    "compound": "Cc1cccc(NC(=O)c2ccc(-c3nn4c(c3C(N)=O)Nc3ccc(N5CCN(CC6CN(c7ccc(N8CCC(=O)NC8=O)cc7)C6)CC5)cc3CC4)c(F)c2C)n1",
    "log10(DC50)": 0.17
  },
  {
    "compound": "Cc1cccc(NC(=O)c2ccc(-c3nn4c(c3C(N)=O)Nc3ccc(N5CCN(CC6CCN(c7ccc(N8CCC(=O)NC8=O)cc7)CC6)CC5)cc3CC4)c(Cl)c2)n1",
    "log10(DC50)": -0.33
  },
  {
    "compound": "Cc1cccc(NC(=O)c2ccc(-c3nn4c(c3C(N)=O)Nc3ccc(N5CCN(C6CN(c7ccc(N8CCC(=O)NC8=O)cc7)C6)CC5)cc3CC4)c(F)c2C)n1",
    "log10(DC50)": 0.13
  }
]

* * *

target_or_system: BTK (Homo sapiens, UniProt Q06187)
method_summary: BTK cell degradation in TMD-8 cells, HTRF assay
Format: cell-based
Design: endogenous in cells; host or cells: TMD-8 cells
applied_conditions: 6 h treatment, IC50 (DC50) of BTK degradation

[
  {
    "compound": "Cc1c(C(=O)Nc2cscn2)ccc(-c2nn3c(c2C(N)=O)Nc2ccc(N4CCN(C5CC(c6ccc(N[C@H]7CCC(=O)NC7=O)cc6)C5)CC4)cc2CC3)c1F (some centres unmarked)",
    "unit_label": "nM",
    "DC50": 2.42
  },
  {
    "compound": "COc1cc(F)ccc1C(=O)NCc1ccc(-c2nn3c(c2C(N)=O)Nc2ccc(N4CCN(CC5CCN(c6ccc(N7CCC(=O)NC7=O)cc6)CC5)CC4)cc2CC3)cc1C",
    "unit_label": "nM",
    "DC50": 9.74
  },
  {
    "compound": "NC(=O)c1c(-c2ccc(Oc3ccccc3)cc2)nn2c1Nc1ccc(NC(=O)C3CCN(c4ccc5c(c4)C(=O)N(C4CCC(=O)NC4=O)C5=O)CC3)cc1CC2 (centres unmarked)",
    "unit_label": "nM",
    "DC50": 3
  },
  {
    "compound": "NC(=O)c1c(-c2ccc(Oc3ccccc3)cc2)nn2c1Nc1ccc(C3CCN(CC4CCN(c5ccc(N6CCC(=O)NC6=O)cc5)CC4)CC3)cc1CC2",
    "unit_label": "nM",
    "DC50": 1.58
  },
  {
    "compound": "Cc1cccc(NC(=O)c2ncc(-c3nn4c(c3C(N)=O)Nc3ccc(N5CCN(CC6CCN(c7ccc(N8CCC(=O)NC8=O)cc7)CC6)CC5)cc3CC4)cc2C)n1",
    "unit_label": "nM",
    "DC50": 8.86
  }
]

* * *

target_or_system: BTK (Homo sapiens, UniProt Q06187)
method_summary: BTK cell degradation in TMD-8 cells, HTRF assay
Type: cell-based
Set-up: endogenous in cells; host or cells: TMD-8 cells
applied_conditions: 6 h treatment, IC50 (DC50) of BTK degradation

[
  {
    "molecule": "Cc1cccc(NC(=O)c2ccc(-c3nn4c(c3C(N)=O)Nc3ccc(N5CCN(Cc6ccc7c(c6)C(C)(C)C(=O)N7C6CCC(=O)NC6=O)CC5)cc3CC4)c(F)c2C)n1 (centres unmarked)",
    "DC50 [nM]": 4.97
  },
  {
    "molecule": "Cc1cc(-c2nn3c(c2C(N)=O)Nc2ccc(N4CCN(CC5CCN(c6ccc(N7CCC(=O)NC7=O)cc6)CC5)CC4)cc2CC3)cc(C)c1C(=O)Nc1cc(C(F)(F)F)ccn1",
    "DC50 [nM]": 5.37
  },
  {
    "molecule": "COc1ccccc1C(=O)NCc1ccc(-c2nn3c(c2C(N)=O)Nc2ccc(N4CCN(CC5CCN(c6ccc(N7CCC(=O)NC7=O)cc6)CC5)CC4)cc2CC3)c(F)c1C",
    "DC50 [nM]": 4.38
  },
  {
    "molecule": "NC(=O)c1c(-c2ccc(Oc3ccccc3)cc2F)nn2c1Nc1ccc(N3CCN(CC4CCN(c5ccc(N6CCC(=O)NC6=O)cc5)CC4)CC3)cc1CC2",
    "DC50 [nM]": 4.71
  },
  {
    "molecule": "NC(=O)c1c(-c2ccc(OCc3ccccc3)cc2)nn2c1Nc1ccc(N3CCN(CC4CCN(c5ccc(N6CCC(=O)NC6=O)cc5)CC4)CC3)cc1CC2",
    "DC50 [nM]": 1.12
  }
]

* * *

target_or_system: BTK (Homo sapiens, UniProt Q06187)
method_summary: BTK cell degradation in TMD-8 cells, HTRF assay
Assay type: cell-based
Set-up: endogenous in cells; host or cells: TMD-8 cells
applied_conditions: 6 h treatment, IC50 (DC50) of BTK degradation
Lab note - cut at 1 nM for DC50: Criterion met if strictly below, Criterion not met if not.

[
  {
    "compound": "COc1ccc2ccccc2c1C(=O)NCc1ccc(-c2nn3c(c2C(N)=O)Nc2ccc(N4CCN(CC5CCN(c6ccc(N7CCC(=O)NC7=O)cc6)CC5)CC4)cc2CC3)cc1F [Example C20]",
    "answer_label": "Criterion met"
  },
  {
    "compound": "COc1ccnc(NC(=O)c2ccc(-c3nn4c(c3C(N)=O)Nc3ccc(N5CCN(CC6CCN(c7ccc(N8CCC(=O)NC8=O)cc7)CC6)CC5)cc3CC4)c(F)c2C)c1 [Example B50]",
    "answer_label": "Criterion not met"
  },
  {
    "compound": "NC(=O)c1c(-c2ccc(Oc3ccccc3)cc2)nn2c1Nc1cc(C(=O)N3CCN(CC4CCN(c5ccc6c(c5)C(=O)N(C5CCC(=O)NC5=O)C6=O)CC4)CC3)ccc1CC2 (centres unmarked) [Example A19]",
    "answer_label": "Criterion not met"
  },
  {
    "compound": "COc1ccc(F)cc1C(=O)NCc1ccc(-c2nn3c(c2C(N)=O)Nc2ccc(N4CCN(CC5CCN(c6ccc(N7CCC(=O)NC7=O)cc6)CC5)CC4)cc2CC3)cc1C [Example C42]",
    "answer_label": "Criterion not met"
  },
  {
    "compound": "COc1ccccc1C(=O)NCc1ccc(-c2nn3c(c2C(N)=O)Nc2ccc(N4CCN(CC5CCN(c6ccc(N7CCC(=O)NC7=O)cc6)CC5)CC4)cc2CC3)cc1 [Example C1]",
    "answer_label": "Criterion met"
  }
]
